Hey, just so you know, these numbers are from patent US7560571B2.

# test target: human KDR enzyme (Homo sapiens)
# Construct: The cytoplasmic domain of the human KDR enzyme was cloned in the form of a GST fusion; GST
# Sequence (P35968 786-1356 limits assumed): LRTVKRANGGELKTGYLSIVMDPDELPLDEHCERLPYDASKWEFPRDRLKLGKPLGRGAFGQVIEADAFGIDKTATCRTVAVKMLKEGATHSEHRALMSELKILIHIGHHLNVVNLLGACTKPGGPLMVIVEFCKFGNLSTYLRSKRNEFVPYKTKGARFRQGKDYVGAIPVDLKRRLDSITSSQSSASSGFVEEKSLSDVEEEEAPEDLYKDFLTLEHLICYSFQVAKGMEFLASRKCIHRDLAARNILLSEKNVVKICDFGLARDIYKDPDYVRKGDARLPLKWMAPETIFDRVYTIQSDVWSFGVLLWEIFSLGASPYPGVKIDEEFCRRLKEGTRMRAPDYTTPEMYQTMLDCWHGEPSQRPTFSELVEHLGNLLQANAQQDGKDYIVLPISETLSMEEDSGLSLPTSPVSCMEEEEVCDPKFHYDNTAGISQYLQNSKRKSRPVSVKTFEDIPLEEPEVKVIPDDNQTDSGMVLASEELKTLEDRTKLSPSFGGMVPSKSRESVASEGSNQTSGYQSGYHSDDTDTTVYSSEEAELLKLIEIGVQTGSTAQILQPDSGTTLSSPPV
# assay remarks: KDR substrate phosphorylation inhibition, scintillation technique
# recorded conditions: GST-KDR cytoplasmic domain, PLCγ substrate, 1 hour at 37° C.; read-out: KDR IC 50
# Description: The inhibitory effect of the compounds is determined in an in vitro test of phosphorylation of substrate with the enzyme KDR via a scintillation technique (96-well plate, NEN). […] The KDR kinase activity is measured in 20 mM MOPS, 10 mM MgCl2, 10 mM MnCl2, 1 mM DTT, 2.5 mM EGTA, 10 mM b-glycerophosphate, pH=7.2, in the presence of 10 mM MgCl2, 100 μm Na3VO4, 1 mM NaF. […] The radioactivity in each well is measured using a Top Count NXT radioactivity counter (Packard). […]
So I've got a bunch of compounds here, and I need their pIC50 values.
// pIC50: -log10(molar conc.)

Lookup: Find the recorded pIC50 belonging to NC(=O)c1[nH]cc(NC(=O)Nc2cc(C(F)(F)F)ccc2F)c1-c1ccc(NC(=O)Nc2cc(C(F)(F)F)ccc2F)cc1 [Example 4] and report it.
Found: 6.45

Lookup: Find the recorded pIC50 belonging to CCOC(=O)c1c[nH]c(C(N)=O)c1-c1ccc(NC(=O)Nc2cc(C(F)(F)F)ccc2F)cc1 [Example 9] and report it.
Found: 7.64

Lookup: Find the recorded pIC50 belonging to NC(=O)c1[nH]cc(Cl)c1-c1ccc(NC(=O)Nc2cc(C(F)(F)F)ccc2F)cc1 [Example 44] and report it.
Found: 7.57

Lookup: Find the recorded pIC50 belonging to NC(=O)c1[nH]ccc1-c1ccc(NC(=O)Nc2cc(C(F)(F)F)ccc2F)cc1 [Example 1] and report it.
Found: 6.94

----------
# test target: human Tie2 (Homo sapiens)
# Construct: amino acids of the intracellular domain 776-1124
# Sequence (Q02763 776-1124): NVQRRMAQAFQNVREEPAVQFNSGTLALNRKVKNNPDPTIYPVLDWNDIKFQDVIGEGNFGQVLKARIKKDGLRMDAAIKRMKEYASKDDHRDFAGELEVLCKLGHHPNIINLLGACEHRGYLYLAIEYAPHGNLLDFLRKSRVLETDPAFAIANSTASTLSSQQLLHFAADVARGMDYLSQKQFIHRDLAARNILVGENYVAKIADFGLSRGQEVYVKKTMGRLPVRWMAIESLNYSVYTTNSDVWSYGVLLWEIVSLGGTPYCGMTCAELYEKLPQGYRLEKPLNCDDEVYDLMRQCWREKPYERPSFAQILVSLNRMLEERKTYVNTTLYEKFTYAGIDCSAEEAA
# assay remarks: Tie2 phosphorylation of PLC inhibition, FlashPlate radioactivity
# recorded conditions: GST-Tie2, GST-PLC substrate, one hour at 37° C.; read-out: TIE2 IC 50
# Description: The coding sequence of human Tie2 corresponding to the amino acids of the intracellular domain 776-1124 was generated by PCR using the cDNA isolated from a human placenta as a model. […] The inhibitory effect of the molecules is determined in a test of phosphorylation of PLC with Tie2 in the presence of GST-Tie2 purified to about 80% homogeneity. […] The kinase activity of Tie2 is measured in a MOPS 20 mM pH 7.2 buffer, containing 10 mM MgCl2, 10 mM MnCl2, 1 mM DTT, 10 mM of glycerophosphate. […]
So I've got a bunch of compounds here, and I need their pIC50 values.
// pIC50: -log10(molar conc.)

Lookup: Find the recorded pIC50 belonging to NC(=O)c1[nH]ccc1-c1ccc(NC(=O)Nc2cc(C(F)(F)F)ccc2F)cc1 and report it.
Found: 7.89

Lookup: Find the recorded pIC50 belonging to NC(=O)c1[nH]cc(Cl)c1-c1ccc(NC(=O)Nc2cc(C(F)(F)F)ccc2F)cc1 and report it.
Found: 8.15

Lookup: Find the recorded pIC50 belonging to CCOC(=O)c1c[nH]c(C(N)=O)c1-c1ccc(NC(=O)Nc2cc(C(F)(F)F)ccc2F)cc1 and report it.
Found: 8.40

Lookup: Find the recorded pIC50 belonging to NC(=O)c1[nH]cc(NC(=O)Nc2cc(C(F)(F)F)ccc2F)c1-c1ccc(NC(=O)Nc2cc(C(F)(F)F)ccc2F)cc1 and report it.
Found: 6.95
